Measured values drawn from ChEMBL document CHEMBL1156167 for this set.

- Assay Target: UniProtKB P21453
- Sequence (P21453 whole entry): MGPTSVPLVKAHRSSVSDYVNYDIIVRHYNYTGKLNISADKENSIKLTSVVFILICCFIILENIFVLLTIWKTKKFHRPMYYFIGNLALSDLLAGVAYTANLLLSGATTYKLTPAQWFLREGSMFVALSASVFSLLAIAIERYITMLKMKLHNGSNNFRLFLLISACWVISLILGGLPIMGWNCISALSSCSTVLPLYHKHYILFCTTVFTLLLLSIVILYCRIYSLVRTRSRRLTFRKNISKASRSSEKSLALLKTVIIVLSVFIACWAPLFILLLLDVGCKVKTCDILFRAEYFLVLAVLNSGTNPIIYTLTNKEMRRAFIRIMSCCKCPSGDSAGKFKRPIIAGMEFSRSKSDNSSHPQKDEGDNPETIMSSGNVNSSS
- Procedure Summary: Displacement of [33P]sphingosine-1-phosphate from human S1P1 receptor expressed in HEK293T cells after 60 mins by scintillation counting
Below is a list of entries, each paired with its recorded IC50 value.
Measured Metric: IC50 (nM)

>>> recorded_number("C[C@](N)(COP(=O)(O)O)C(=O)Nc1ccc(OCCc2ccc(-c3ccccc3)cc2)c(C(N)=O)c1")
150
>>> recorded_number("C[C@](N)(COP(=O)(O)O)C(=O)Nc1ccc(OCCc2ccc(-c3ccccc3)cc2)c(C#N)c1")
3.4
>>> recorded_number("C[C@](N)(COP(=O)(O)O)C(=O)Nc1ccc(OCCc2ccc(-c3ccccc3)cc2)c(Br)c1")
1.3
>>> recorded_number("C[C@](N)(COP(=O)(O)O)c1nc(-c2ccc(OCc3ccc(-c4ccccc4)cc3)c(C(F)(F)F)c2)c[nH]1")
0.23
>>> recorded_number("Cc1cc(NC(=O)[C@@](C)(N)COP(=O)(O)O)ccc1OCCc1ccc(-c2ccccc2)cc1")
6
>>> recorded_number("CNC(=O)c1cc(NC(=O)[C@@](C)(N)COP(=O)(O)O)ccc1OCCc1ccc(-c2ccccc2)cc1")
500
